Molecular target: Short transient receptor potential channel 4 (Mus musculus, UniProt Q9QUQ5)
Sequence (Q9QUQ5 whole entry): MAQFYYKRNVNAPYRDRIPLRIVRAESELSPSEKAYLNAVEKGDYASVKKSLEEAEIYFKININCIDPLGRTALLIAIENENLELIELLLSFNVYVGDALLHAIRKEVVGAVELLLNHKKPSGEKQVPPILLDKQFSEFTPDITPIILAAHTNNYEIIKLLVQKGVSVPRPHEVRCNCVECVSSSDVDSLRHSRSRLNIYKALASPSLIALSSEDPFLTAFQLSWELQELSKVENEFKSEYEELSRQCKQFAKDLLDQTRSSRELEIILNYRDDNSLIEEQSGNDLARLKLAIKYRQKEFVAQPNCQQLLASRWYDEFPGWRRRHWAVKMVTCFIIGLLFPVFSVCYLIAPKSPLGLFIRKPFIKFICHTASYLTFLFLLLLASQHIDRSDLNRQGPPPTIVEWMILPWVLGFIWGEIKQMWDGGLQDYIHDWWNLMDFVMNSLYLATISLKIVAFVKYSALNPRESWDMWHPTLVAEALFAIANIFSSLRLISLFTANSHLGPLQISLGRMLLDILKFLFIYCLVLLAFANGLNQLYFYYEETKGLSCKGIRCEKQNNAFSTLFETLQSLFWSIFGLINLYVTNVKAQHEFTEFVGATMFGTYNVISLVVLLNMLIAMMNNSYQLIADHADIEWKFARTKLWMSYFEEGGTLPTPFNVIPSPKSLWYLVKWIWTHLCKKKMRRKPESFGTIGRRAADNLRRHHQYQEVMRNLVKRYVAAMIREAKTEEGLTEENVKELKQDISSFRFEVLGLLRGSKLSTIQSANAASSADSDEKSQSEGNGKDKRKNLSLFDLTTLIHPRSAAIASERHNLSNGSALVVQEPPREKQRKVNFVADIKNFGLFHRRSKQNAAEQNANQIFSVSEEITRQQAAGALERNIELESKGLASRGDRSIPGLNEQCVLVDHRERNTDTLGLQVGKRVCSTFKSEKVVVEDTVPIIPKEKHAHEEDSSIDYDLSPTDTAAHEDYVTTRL
Assay: block of DAMGO-driven TRPC4 calcium entry – cell-based, HEK293 TRPC4/mu-opioid, Fluo-4 calcium, dose response (AID 434942);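 note: potency of inhibitors blocking the TRPC4 calcium response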
Type: functional
Activity calls are given as the source filed them. The rule behind the calls is not given here.
Entries and their EC50 values follow.

# compound, result
measured = [
    ("Oc1ccc(CN2CCCCC2)nc1-c1ccccc1", "4730 nM (active)"),
    ("O=C(COc1ccc(Cl)cc1)Nc1ccc(C(=O)O)cc1NC(=O)COc1ccc(Cl)cc1", "1.3 nM (active)"),
    ("Sc1nnc(-c2cc3c(s2)-c2ccccc2CC3)o1", "944 nM (active)"),
]

The reported EC50 of the compound CN(C)C(CNC(=O)C1CCN(S(=O)(=O)c2cccc(C(F)(F)F)c2)CC1)c1ccccc1 (configuration not stated) was 421 nM (active)

The reported EC50 of the compound c1ccc2c(c1)nnn2-c1ncnc2sc3c(c12)CCCC3 was 6680 nM (active)

The reported EC50 of the compound COc1ccccc1N(C(=O)c1snc(C(N)=O)c1N)C(C(=O)NCc1ccccc1)c1ccc(C)o1 (configuration not stated) was 944 nM (active)

The reported EC50 of the compound COc1ccccc1CNCc1ccc(OC)c2ccccc12 was 5310 nM (active)
